These records show IC50 for Cytochrome P450 3A4 (Homo sapiens).
Lab book: enter the figure in µM, no units written.

Below are worked cases with known answers.
> print(dat)
                            compound.smiles  experimental.value
1  CC#CCn1c(N2CCC[C@@H](N)C2)cc(=O)n(Cc2ccc3cc(F)ccc3n2)c1=O                58.3
2  CC#CCn1c(N2CCC[C@@H](N)C2)cc(=O)n(Cc2ccc3ccc(F)cc3n2)c1=O                54.7

Looking up CC#CCn1c(N2CCC[C@@H](N)C2)cc(=O)n(Cc2ccc3ccc(Cl)cc3n2)c1=O , I see its IC50 listed as 46.2

* * *

# test-description: Half life in Sprague-Dawley rat at 25 mg/kg, po
# Type: ADME, organism-based
# Design: dose 25 mg/kg, route oral
# condition-notes: in vivo
# half-life per record follows
Lab book: enter the figure in h, no units written.

Below are worked cases with known answers.
> print(dat)
                            compound.smiles  readout.label  experimental.value
1  CC#CCn1c(N2CCC[C@@H](N)C2)cc(=O)n(Cc2ccc3ccc(Cl)cc3n2)c1=O      half-life                5.02
2  CC#CCn1c(N2CCC[C@@H](N)C2)cc(=O)n(Cc2ccc3ccccc3n2)c1=O      half-life                 4.2

Kindly consider the entry below.
Looking up Cn1c(=O)cc(N2CCC[C@@H](N)C2)n(Cc2ccccc2C#N)c1=O , I see its half-life listed as 2

* * *

# test-description: Apparent volume of distribution during terminal phase in Sprague-Dawley rat at 5 mg/kg, iv and 25 mg/kg, po
# Type: ADME, organism-based
# condition-notes: in vivo, read-out: Vz/F
readout-label: Vd/F

Looking up CC#CCn1c(N2CCC[C@@H](N)C2)cc(=O)n(Cc2ccc3ccc(Cl)cc3n2)c1=O , I see its Vd/F listed as 8.65 L/kg

* * *

# test-description: AUC (0 to t) in Sprague-Dawley rat at 25 mg/kg, po
# Assay type: ADME, organism-based
# Design: dose 25 mg/kg, route oral
# condition-notes: plasma
readout-label: AUC(0-t) (ng·h/mL)
Lab book: enter the figure in ng·h/mL, no units written.

Looking up CC#CCn1c(N2CCC[C@@H](N)C2)cc(=O)n(Cc2ccc3ccc(Cl)cc3n2)c1=O , I see its AUC(0-t) listed as 17600

* * *

# study-system: Voltage-gated inwardly rectifying potassium channel KCNH2 (Homo sapiens, UniProt Q12809)
# Sequence (Q12809 whole entry): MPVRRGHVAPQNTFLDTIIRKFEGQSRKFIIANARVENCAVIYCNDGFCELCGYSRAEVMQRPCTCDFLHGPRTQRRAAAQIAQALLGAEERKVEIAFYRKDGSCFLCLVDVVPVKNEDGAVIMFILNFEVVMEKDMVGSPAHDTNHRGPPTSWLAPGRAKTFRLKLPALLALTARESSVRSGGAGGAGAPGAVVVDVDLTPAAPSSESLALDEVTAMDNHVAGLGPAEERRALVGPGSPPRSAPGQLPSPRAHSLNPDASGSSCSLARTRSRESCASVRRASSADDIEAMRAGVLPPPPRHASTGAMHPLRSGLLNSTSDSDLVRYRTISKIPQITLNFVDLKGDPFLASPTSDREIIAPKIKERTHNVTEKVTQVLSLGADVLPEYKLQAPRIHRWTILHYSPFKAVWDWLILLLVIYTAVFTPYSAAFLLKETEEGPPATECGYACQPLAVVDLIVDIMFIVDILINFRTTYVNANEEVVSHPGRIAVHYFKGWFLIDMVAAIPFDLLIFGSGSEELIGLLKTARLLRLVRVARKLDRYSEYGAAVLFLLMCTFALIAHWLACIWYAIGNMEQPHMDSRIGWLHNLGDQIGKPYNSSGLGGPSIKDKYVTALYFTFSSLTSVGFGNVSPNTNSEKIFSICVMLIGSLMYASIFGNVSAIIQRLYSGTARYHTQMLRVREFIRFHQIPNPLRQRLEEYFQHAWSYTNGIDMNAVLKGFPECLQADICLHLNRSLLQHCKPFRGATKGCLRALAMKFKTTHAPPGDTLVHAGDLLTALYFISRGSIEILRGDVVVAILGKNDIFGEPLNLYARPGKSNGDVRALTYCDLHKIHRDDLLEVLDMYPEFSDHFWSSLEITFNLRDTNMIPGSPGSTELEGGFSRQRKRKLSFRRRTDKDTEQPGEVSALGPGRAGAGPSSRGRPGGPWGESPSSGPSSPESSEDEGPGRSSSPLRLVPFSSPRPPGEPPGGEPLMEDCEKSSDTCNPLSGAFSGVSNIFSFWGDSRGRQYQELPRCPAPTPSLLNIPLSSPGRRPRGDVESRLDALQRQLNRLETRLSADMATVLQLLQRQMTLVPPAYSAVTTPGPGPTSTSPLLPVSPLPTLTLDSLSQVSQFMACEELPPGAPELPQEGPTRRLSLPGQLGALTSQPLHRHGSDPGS
readout-label: IC50

Given the compound CC#CCn1c(N2CCC[C@@H](N)C2)cc(=O)n(Cc2ccc3ccc(Cl)cc3n2)c1=O and test system Voltage-gated inwardly rectifying potassium channel KCNH2 (Homo sapiens, UniProt Q12809), the measured IC50 is > 100 µM

These entries and their values trace back to ChEMBL document CHEMBL2424575.
